# methodDescription: Single-dose two-period crossover bioequivalence study, fed (high-fat breakfast): plasma pharmacokinetics of lisinopril and amlodipine (LC-MS/MS, NCA)
# settings: human, in vivo, po, Plasma concentration of lisinopril, individual subjects, nominal time 5 h, reference (R) tablets
recordedEndpoint: concentration at 5 h (ng/mL)
Your answer is read as ng/mL, so omit the unit and give the number.

Request: State its concentration at 5 h: NCCCC[C@H](N[C@@H](CCc1ccccc1)C(=O)O)C(=O)N1CCC[C@H]1C(=O)O [lisinopril]
Response: 12.9

----------
# methodDescription: Single-dose two-period crossover bioequivalence study, fasting: plasma pharmacokinetics of lisinopril and amlodipine (LC-MS/MS, NCA);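 also: single tablet dose 10 mg/5 mg fixed combination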
# settings: human, plasma, po, Plasma concentration of amlodipine, Max, reference (R) tablets, nominal time 9 h, maximum over subjects
recordedEndpoint: concentration at 9 h (ng/mL)
Your answer is read as ng/mL, so omit the unit and give the number.

Request: State its concentration at 9 h: CCOC(=O)C1=C(COCCN)NC(C)=C(C(=O)OC)C1c1ccccc1Cl (stereo not shown)
Response: 3.04
